Cited source: the supplement of paper PMC8960247

Each record here notes measured relative viability.
Test system: UMB1949 (TSC2-deficient)
test-name: relative viability vs DMSO (fraction); higher = less cytotoxic
run-parameters: 0.0128 nM; serum: 0.1% FBS; 72 h
Structures can show the parent of a compound that is named as a salt.
Field format: numeric only.

// below: answered molecules
Recall the recorded relative viability for `CC(C)[C@H](C(=O)Nc1ccc(C(=O)NO)cc1)c1ccccc1` with UMB1949 (TSC2-deficient) and state it. 1.03

Recall the recorded relative viability for `O=C(/C=C/c1ccc(CN(CCO)CCc2c[nH]c3ccccc23)cc1)NO` with UMB1949 (TSC2-deficient) and state it. 1.01

Recall the recorded relative viability for `CCC[C@H](NC(=O)/C(C#N)=C/c1cccc(Br)n1)c1ccccc1` with UMB1949 (TSC2-deficient) and state it. 1.14

Recall the recorded relative viability for CO[C@H]1C[C@@H]2CC[C@@H](C)[C@@](O)(O2)C(=O)C(=O)N2CCCC[C@H]2C(=O)O[C@H]([C@H](C)C[C@@H]2CC[C@@H](O)[C@H](OC)C2)CC(=O)[C@H](C)/C=C(\C)[C@@H](O)[C@@H](OC)C(=O)[C@H](C)C[C@H](C)/C=C/C=C/C=C/1C [Rapamycin(Sirolimus)] with UMB1949 (TSC2-deficient) and state it. 0.874

***
Recall the recorded relative viability for Cc1ccc([N+](=O)[O-])cc1S(=O)(=O)N(C)/N=C/c1cnc2ccc(Br)cn12 [PIK-75 Hydrochloride] with UMB1949 (TSC2-deficient) and state it. 0.512

Recall the recorded relative viability for `COC(=O)Nc1nc2cc(Sc3ccccc3)ccc2[nH]1` with UMB1949 (TSC2-deficient) and state it. 1.05

Recall the recorded relative viability for `Cn1cncc1[C@@](N)(c1ccc(Cl)cc1)c1ccc2c(c1)c(-c1cccc(Cl)c1)cc(=O)n2C` with UMB1949 (TSC2-deficient) and state it. 0.938

====

System: 621-103 (TSC2-rescued);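 note: immortalized renal angiomyolipoma cells stably carrying empty vector or TSC2, dosed in 384-well plates in DMEM, viability normalized to vehicle-treated wells within each plate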
test-name: relative viability vs DMSO; higher = less cytotoxic
run-parameters: 0.01 µM; serum: 10% FBS; 72 h
Each record here notes measured relative viability.
Give the quantity in %, number only.

// below: answered molecules
# get_value(readout='relative viability', item= `Cn1c(Nc2ccc(C(F)(F)F)cc2)nc2cc(Oc3ccnc(-c4ncc(C(F)(F)F)[nH]4)c3)ccc21` ) 101

# get_value(readout='relative viability', item= CC(=O)O[C@H]1CC[C@@]2(C)C(=CC[C@@H]3[C@@H]2CC[C@]2(C)C(c4cccnc4)=CC[C@@H]32)C1 [Abiraterone Acetate (CB7630)] ) 111

# get_value(readout='relative viability', item= `Cn1c(N2CCCCS2(=O)=O)nc(C(=O)NCc2ccc(F)cc2)c(O)c1=O` ) 101

Turning to the following molecule.
# get_value(readout='relative viability', item= `COc1cc2c(N3CCN(C(=O)Nc4ccc(OC(C)C)cc4)CC3)ncnc2cc1OCCCN1CCCCC1` ) 101

====

System: UMB1949 (TSC2-deficient);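 note: renal angiomyolipoma cell lines screened in 384-well plates, viability normalized per plate to DMSO-treated cells, each plate carrying 50 nM rapamycin and 1 µM staurosporine controls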
test-name: relative viability vs DMSO (fraction); higher = less cytotoxic
run-parameters: 1.6 nM; serum: 0.1% FBS; 72 h
Please respond with true (1) when measured relative viability is strictly beneath 0.9, and with false (0) in all other cases.

Is 0.9 strictly greater than the compound's reported relative viability? compound: `O=C(/C=C/c1ccc(CN(CCO)CCc2c[nH]c3ccccc23)cc1)NO` true (1)

Is 0.9 strictly greater than the compound's reported relative viability? compound: `c1ccc2c(-c3cnn4cc(-c5ccc(N6CCNCC6)cc5)cnc34)ccnc2c1` false (0)

Is 0.9 strictly greater than the compound's reported relative viability? compound: Nc1cccc2c1C(=O)N(C1CCC(=O)NC1=O)C2=O (centres undefined) [Pomalidomide] false (0)

***
Is 0.9 strictly greater than the compound's reported relative viability? compound: `CCc1cccc(CC)c1NC(=O)N1Cc2[nH]nc(NC(=O)c3ccc(N4CCN(C)CC4)cc3)c2C1` false (0)

Is 0.9 strictly greater than the compound's reported relative viability? compound: `CC(C)C[C@H](NC(=O)CNC(=O)c1cc(Cl)ccc1Cl)B(O)O` false (0)

Is 0.9 strictly greater than the compound's reported relative viability? compound: `CC[C@@]1(O)C(=O)OCc2c1cc1n(c2=O)Cc2cc3ccccc3nc2-1` true (1)

Is 0.9 strictly greater than the compound's reported relative viability? compound: `CCCCc1nc2cc(/C=C/C(=O)NO)ccc2n1CCN(CC)CC` false (0)

Is 0.9 strictly greater than the compound's reported relative viability? compound: `CC(C)C[C@H](NC(=O)[C@H](Cc1ccccc1)NC(=O)c1cnccn1)B(O)O` true (1)
